Data credit: PubChem BioAssay (NCI)

tested on: M14 melanoma; assay: NCI tumour cell line growth inhibition, 48 h
property: TGI

Which TGI reading was recorded for the compound COc1cc([C@@H]2c3cc4c(cc3[C@H](OC3OC5COC(C(C)C)OC5C(O)C3O)C3COC(=O)[C@@H]32)OCO4)cc(OC)c1OC (some centres not stated) ? > 33 µM

Which TGI reading was recorded for the compound COc1ccc(CC2OC3(CCCCC3)CC3CCCCN32)cc1 (configuration not stated) ? > 100 µM

Which TGI reading was recorded for the compound OCC1OC(NO)C(O)C(O)C1O (configuration not stated) ? > 100 µM

Which TGI reading was recorded for the compound C#CCN1C(=O)CN2C(Cl)(Cl)C2(c2ccccc2)c2cc(Cl)ccc21 (configuration not stated) ? > 100 µM

Which TGI reading was recorded for the compound `Cc1cc(C(=O)NOCCO)c(Nc2ccc(I)cc2F)n(C)c1=O` ? 2.89 µM

Which TGI reading was recorded for the compound CCCCCCCCC/C=C1/CC(CO)(COC(=O)C2CCCCC2)OC1=O (configuration not stated) ? > 100 µM

Which TGI reading was recorded for the compound `CC(=O)Nc1ccc2c(c1)[nH]c(=O)c1cc(NC(C)=O)ccc12` ? > 100 µM

Which TGI reading was recorded for the compound `CC(=O)Nc1ccc(S(=O)(=O)Nc2cnc3ccccc3n2)cc1` ? > 100 µM

Which TGI reading was recorded for the compound `O=C1/C(=C/c2ccc(C(=O)O)cc2)CNC/C1=C\c1ccc(C(=O)O)cc1` ? > 100 µM

Which TGI reading was recorded for the compound `c1ccc2c(c1)CCCc1nnc3nc4ccccc4n3c1-2` ? 25.2 µM

Which TGI reading was recorded for the compound `CCn1c(C)nc([N+](=O)[O-])c1Sc1ncc[nH]1` ? > 100 µM

Which TGI reading was recorded for the compound `Clc1cccc(C=NC23CC4CC(CC(C4)C2)C3)c1Cl` ? > 10 µM

Which TGI reading was recorded for the compound OCC1OC(N2CCN(C3OC(CO)C(O)C(O)C3O)CC2)C(O)C(O)C1O (configuration not stated) ? > 100 µM

Which TGI reading was recorded for the compound `Cc1ccccc1N=C(c1ccccc1)C1C(=O)c2ccccc2C1=O` ? 13.2 µM

Which TGI reading was recorded for the compound CC(=O)OC1CC[C@@]2(C)C(=CC[C@@H]3[C@@H]2CC[C@]2(C)Nc4c(cnn4-c4ccc(F)cc4)C[C@@H]32)C1 (some centres not stated) ? > 100 µM

Which TGI reading was recorded for the compound `Cc1cc(NCCCCCCCCNc2cc(C)nc3cc(N(C)C)ccc23)c2ccc(N(C)C)cc2n1` ? 21.4 µM

Which TGI reading was recorded for the compound `Oc1ccc(Cl)cc1N=Nc1c(O)ccc2ccccc12` ? > 100 µM

Which TGI reading was recorded for the compound `CN(C)c1ccc(/C=C(\C#N)C(=O)c2ccccc2)cc1Br` ? > 100 µM

Which TGI reading was recorded for the compound `O=C1C(Nc2ccc(S(=O)(=O)Nc3cnc4ccccc4n3)cc2)=CC(=Nc2ccc(S(=O)(=O)Nc3cnc4ccccc4n3)cc2)c2ccccc21` ? 33.7 µM

Which TGI reading was recorded for the compound N/C(=N/O)NOCCC(N)C(=O)O (configuration not stated) ? > 100 µM

Which TGI reading was recorded for the compound CC#CC#C/C=C1/C=CC2(CCCCO2)O1 (configuration not stated) ? > 100 µM

Which TGI reading was recorded for the compound CC(=O)[C@H]1CC[C@@H]2[C@]1(C)CC=C1[C@]23C=C[C@]2(C[C@@H](O)CC[C@]12C)C(C(=O)O)C3C(=O)O (some centres not stated) ? > 100 µM
